- Tested on: Bcrp1/Abcg2
- Measurement Notes: in vivo
- Condition Description: mouse, brain ECF (relative to unbound plasma), po, 50 mg/kg
Assay Endpoint: Kp

// sample C#Cc1cccc(Nc2ncnc3cc(OCCOC)c(OCCOC)cc23)c1 , its Kp was 1.4

---

- Measurement Notes: in vitro
- Condition Description: mouse, plasma
Assay Endpoint: fraction unbound at 10 h
// return a plain number; no unit text

Per the record, C#Cc1cccc(Nc2ncnc3cc(OCCOC)c(OCCOC)cc23)c1 has fraction unbound at 10 h of 0.048

---

- Tested on: Mrp4/Abcc4
- Measurement Notes: in vivo
- Condition Description: mouse, brain ECF (relative to unbound plasma), po, 50 mg/kg
Assay Endpoint: Kp
API doc: respond with a numeric literal and nothing else, no unit.

Quick note, Kp for C#Cc1cccc(Nc2ncnc3cc(OCCOC)c(OCCOC)cc23)c1 [erlotinib, Erlotinib] landed at 0.32

Reference source for all entries: paper PMC3017236
